# system_tested: B2 bradykinin receptor (Homo sapiens) (UniProt P30411)
# Sequence (P30411 whole entry): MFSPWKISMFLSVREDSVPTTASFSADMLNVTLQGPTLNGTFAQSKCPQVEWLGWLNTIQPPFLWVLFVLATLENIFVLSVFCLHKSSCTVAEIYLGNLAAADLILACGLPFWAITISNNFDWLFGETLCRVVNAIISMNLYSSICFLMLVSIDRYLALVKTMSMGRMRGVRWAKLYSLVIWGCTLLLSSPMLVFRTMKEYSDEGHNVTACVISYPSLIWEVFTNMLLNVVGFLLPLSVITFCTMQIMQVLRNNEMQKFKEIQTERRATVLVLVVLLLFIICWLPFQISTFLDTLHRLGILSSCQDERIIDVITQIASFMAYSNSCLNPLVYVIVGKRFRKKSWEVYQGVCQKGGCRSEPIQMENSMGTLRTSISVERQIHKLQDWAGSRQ
# assay_protocol: In vitro binding affinity against Bradykinin receptor B2 at 1 uM concentration
experimental_readout: inhibition
State the value with its unit after it.

See these solved cases before continuing.
>  <compound_string>
Cc1ccc2cccc(OCc3c(C)ccc(N4CCC[C@@H]4CN4C(=O)c5ccccc5C4=O)c3C)c2n1

>  <inhibition>
8%

$$$$
>  <compound_string>
CC(=O)Nc1ccc(/C=C/C(=O)NC[C@H]2CCCN2c2ccc(C)c(COc3cccc4ccc(C)nc34)c2C)cn1

>  <inhibition>
76%

$$$$
>  <compound_string>
Cc1ccc2cccc(OCc3c(C)ccc(N4CCC[C@@H]4C(=O)O)c3C)c2n1

>  <inhibition>
11%

$$$$

# next compound below
Find inhibition (B2 bradykinin receptor (Homo sapiens) (UniProt P30411)) for the entry Cc1ccc2cccc(OCc3c(C)ccc(N4CCC[C@H]4CN4C(=O)c5ccccc5C4=O)c3C)c2n1
8%
